The reported measurements were obtained from paper PMC5540273.

Measured %Inh values are reported for all entries that follow.
system: IGF1R; conditions: concentration: 1 μM,replicates: in singlicate; n = 1;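 note: KINOMEscan kinase panel screen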
Could you give me the number in %? Just the number is fine.

Answered cases to consult:
O=C(Nc1ccccc1)c1cccc(Oc2ccc3nccn3n2)c1: 0
COC(=O)c1cccc(NC(=O)NC2CCN(c3ccnc(Nc4cc(OC)c(OC)c(OC)c4)n3)C2)c1 (stereo not drawn): 3
CS(=O)(=O)c1cccc(CNc2nc(Nc3ccc4c(c3)[C@@H]3C[C@@H]4CNC3=O)ncc2C(F)(F)F)c1: 89

Test item O=C(Nc1ccc(Oc2ccc3nc(NC(=O)C4CC4)cn3n2)c(F)c1)c1cccn(-c2ccccc2)c1=O ; IGF1R; reported %Inh was 0

Response field %Inh (IGF1R) for item O=C(Nc1cccc(C(F)(F)F)c1)c1cccc(Oc2ccc3nccn3n2)c1 : 20
